test_name: Visual (tube-tapping) assay of gel-forming capability and solubility
Assay type: physicochemical
Design: key: Y: can form a liquid gel; N: lacks the ability to efficiently form a liquid gel
measurement_conditions: visual inspection of 11% peptide solutions, tube-tapping, 20 min after mixing
measurement_name: Gel-forming ability

1. CCCCCCCCCCCCCCCC(=O)N[C@@H](CCCCN)C(=O)N[C@H](C(=O)N[C@@H](CCC(N)=O)C(=O)N[C@@H](CCCCNC)C(=O)N[C@@H](CC(C)C)C(=O)N[C@@H](CO)C(=O)N[C@@H](C)C(=O)N1CCC[C@H]1C(=O)N[C@H](C(=O)N[C@@H](CC(=O)O)C(=O)N1CCC[C@H]1C(=O)N[C@@H](CO)C(=O)N[C@@H](CO)C(=O)N1CCC[C@H]1C(=O)N[C@@H](Cc1c[nH]cn1)C(=O)N[C@@H](CO)C(=O)N[C@@H](Cc1ccc(O)cc1)C(N)=O)C(C)C)C(C)C [ADE651L]    Y
